Reported IC50 or % Inhibition Factor Xa (30 µM), Human factor Xa (Homo sapiens, UniProt P00742).
The response must be a number in % with no trailing unit.

Below: 10 molecules and their reported IC50 or % Inhibition Factor Xa (30 µM).
molecule | reported_result
N=C(N)c1ccc(CNC(=O)Cn2c(-c3ccc4c(c3)OCO4)c(Cl)nc(NCCc3cccc(Cl)c3)c2=O)cc1 | 21
N=C(N)c1ccc(CNC(=O)Cn2c(-c3ccc4c(c3)OCO4)c(Cl)nc(NCCc3cccnc3)c2=O)cc1 | 17
N=C(N)c1ccc(CNC(=O)Cn2c(-c3ccccc3)c(Cl)nc(NCCCN3CCCC3=O)c2=O)cc1 | 4
N=C(N)c1ccc(CNC(=O)Cn2c(-c3cccc(N)c3)c(Cl)nc(NCCN3CCCCC3)c2=O)cc1 | 41
N=C(N)c1ccc(CNC(=O)Cn2c(-c3cccc(N)c3)c(Cl)nc(NC3CCC3)c2=O)cc1F | 0
CSCC(C(=O)NCc1ccc(C(=N)N)cc1)n1c(-c2ccccc2)c(Cl)nc(NCc2ccccc2)c1=O (stereo not drawn) | 0
N=C(N)c1ccc(CNC(=O)Cn2c(-c3cccc(N)c3)c(Cl)nc(NCCCCN3CCCC3)c2=O)cc1 | 27
CSCC(C(=O)NCc1ccc(C(=N)N)cc1)n1c(-c2ccccc2)c(Cl)nc(NCCc2ccccc2)c1=O (stereo not drawn) | 0
N=C(N)c1ccc(CNC(=O)Cn2c(-c3ccc(-c4ccccc4)cc3)c(Cl)nc(NCCc3ccccc3)c2=O)cc1 | 0
N=C(N)c1ccc(CNC(=O)Cn2c(-c3ccsc3)c(Cl)nc(NCCc3cccc(Cl)c3)c2=O)cc1 | 0

Report IC50 or % Inhibition Factor Xa (30 µM) for N=C(N)c1ccc(CNC(=O)Cn2c(-c3ccc(Cl)cc3)c(Cl)nc(NCCc3cccc(Cl)c3)c2=O)cc1
28

Report IC50 or % Inhibition Factor Xa (30 µM) for N=C(N)c1ccc(CNC(=O)Cn2c(-c3cccc(Cl)c3)c(Cl)nc(NCc3ccncc3)c2=O)cc1
16

Report IC50 or % Inhibition Factor Xa (30 µM) for N=C(N)c1ccc(CNC(=O)Cn2c(-c3ccccc3)c(Cl)nc(NC(c3ccccc3)c3ccccc3)c2=O)cc1
28

Report IC50 or % Inhibition Factor Xa (30 µM) for N=C(N)c1ccc(CNC(=O)Cn2c(-c3ccc4c(c3)OCO4)c(Cl)nc(NCc3ccncc3)c2=O)cc1
18

Report IC50 or % Inhibition Factor Xa (30 µM) for CC(C)Nc1nc(Cl)c(-c2cccc([N+](=O)[O-])c2)n(CC(=O)NCc2ccc(C(N)=NO)cc2)c1=O
0

Entry source: patent EP1202975B1
